activity, negative = cell killing reference
assay: Drug repurposing screens with cells derived from glioblastoma tumor samples (AID 1345199); details: GBM patient neurospheres viability, ATP luminescence, 48 h; at 45.9 µM (top of the series); tumour line D; note: % is set by controls: 0 for no effect and ±100 for the full control effect; nearly all actives have a fitted effect of over 40% in size
Records with an inconclusive call do not appear. Activity calls are given as the source filed them. Calls come from the whole dose curve; as a rule, active = well fitted inhibition curve with a large enough effect; inconclusive = small, poorly fitted or top-dose-only effect; inactive = flat fitted curve, though single readings scatter.

CO; -4.99% (inactive)
CC(=O)[C@@]1(O)CC[C@H]2[C@@H]3C=C(Cl)C4=CC(=O)[C@@H]5C[C@@H]5[C@]4(C)[C@H]3CC[C@@]21C; -9.17% (inactive)
Cc1cc(C(=O)NCCc2ccc(S(=O)(=O)NC(=O)NN3CCCCCC3)cc2)no1; -13.6% (inactive)
NC(Cc1ccccc1)C(=O)O (stereo unspecified); 10.2% (inactive)

Tell me the measured activity, negative = cell killing of C/C=C/C=C/C(=O)O , please.
-15.1% (inactive)

Tell me the measured activity, negative = cell killing of O=C(O)c1ccc(OCCn2ccnc2)cc1 , please.
-25.4% (inactive)

* * *

experiment: qHTS profiling for inhibitors of Plasmodium falciparum proliferation (AID 504749);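 note: 0% = DMSO vehicle and full inhibition = artemisinin control; nearly all actives have a fitted effect of over 60% in size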; details: P. falciparum in erythrocytes, SYBR Green DNA, 72 h; at 28.7 µM (top of the series); parasite line A
Inconclusive results are not listed.
activity, negative = inhibition reference
Number only, in %; omit the unit.

# count of solved cases: 2
CCN(CC)CCC(=O)N1c2ccccc2Sc2ccc(C(F)(F)F)cc21; -4.68
Cc1cc(C)c(NC(=O)C[C@H](CC(=O)O)c2cccc3ccccc23)c(C(=O)N2CCC3(CCCC3)CC2)c1; 4.74

Tell me the measured activity, negative = inhibition of S=C1SCN(Cc2ccccc2)CN1Cc1ccccc1 , please.
-6.7

Tell me the measured activity, negative = inhibition of NCCN , please.
5.04

Tell me the measured activity, negative = inhibition of CN(C)C=Nc1c(I)cc(I)c(CCC(=O)O)c1I , please.
0.723

Tell me the measured activity, negative = inhibition of CS(=O)(=O)c1ccc([C@@H](O)[C@@H](COC(=O)CN)NC(=O)C(Cl)Cl)cc1 , please.
-27.9

* * *

test: Drug repurposing screens with cells derived from glioblastoma tumor samples (AID 1345199); conditions: GBM patient neurospheres viability, ATP luminescence, 48 h; at 21.2 µM (top of the series); tumour line D; note: % is set by controls: 0 for no effect and ±100 for the full control effect; nearly all actives have a fitted effect of over 40% in size
Inconclusive results are not listed.
experimental-endpoint: activity, negative = cell killing (%)
Number only, in %; omit the unit.

CC1CS(=O)(=O)CCN1/N=C/c1ccc([N+](=O)[O-])o1 (stereo not drawn); -29.2
COC1[C@@H](O[C@@H]2O[C@H](C)[C@@H](O[C@H]3C[C@@](C)(O)[C@H](OC(=O)CC(C)C)[C@H](C)O3)[C@H](N(C)C)[C@H]2O)[C@@H](CC=O)C[C@@H](C)[C@@H](O)/C=C/C=C/C[C@@H](C)OC(=O)C[C@H]1OC(C)=O (stereo partly drawn); -12.4
CC1CCCC(C)N1NC(=O)c1ccc(Cl)c(S(N)(=O)=O)c1 (stereo not drawn); -17.6
CCCC1C(=O)N2C(N(C)C)=Nc3ccc(C)cc3N2C1=O (stereo not drawn); -11.9
O=C1NCCN1c1ncc([N+](=O)[O-])s1; -24

Tell me the measured activity, negative = cell killing of NC(N)=NCC1COC2(CCCCC2)O1 (stereo not drawn) , please.
-12.9

Tell me the measured activity, negative = cell killing of O=C(O)CCC(=O)c1ccc(-c2ccccc2)cc1 , please.
-17.7
